Listed here are binders together with their documented IC50.
Test Target: T1, recombinant biotinylated human PAR2 extracellular domain (residues 1-75), N-terminal AviTag, C-terminal Flag … (human, UniProt P55085 26-75, biotin on the AviTag (enzymatic biotinylation))
T1 construct: also called Bio-human-PAR2 ECD; human PAR2 ECD; not shown: N-terminal AviTag (Avidity LLC); C-terminal Flag and poly Histidine tags
T1 sequence (P55085 26-75): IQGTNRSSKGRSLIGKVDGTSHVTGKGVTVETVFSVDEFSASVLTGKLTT
Assay Method Text: HTRF competition with Dylight650-Par0067 IgG, pH 6.0, IgG
Record the value in nM, omitting the unit from your answer.

Before answering, review these 2 worked examples.
PaB670162 IgG (antibody, V domains shown, IgG1-TM (L234F, L235E, P331S), human lambda light chain) VH: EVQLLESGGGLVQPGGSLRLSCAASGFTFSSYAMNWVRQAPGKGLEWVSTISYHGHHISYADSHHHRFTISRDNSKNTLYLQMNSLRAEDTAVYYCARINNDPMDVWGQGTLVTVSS VL: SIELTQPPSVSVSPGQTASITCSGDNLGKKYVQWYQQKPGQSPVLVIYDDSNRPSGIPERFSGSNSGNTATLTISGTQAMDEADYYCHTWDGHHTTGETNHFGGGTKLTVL; 906
PaB670161 IgG (antibody, V domains shown, IgG1-TM (L234F, L235E, P331S), human lambda light chain) VH: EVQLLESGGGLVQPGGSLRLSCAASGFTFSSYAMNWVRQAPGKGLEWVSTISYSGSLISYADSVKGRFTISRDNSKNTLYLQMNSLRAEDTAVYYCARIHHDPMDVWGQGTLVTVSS VL: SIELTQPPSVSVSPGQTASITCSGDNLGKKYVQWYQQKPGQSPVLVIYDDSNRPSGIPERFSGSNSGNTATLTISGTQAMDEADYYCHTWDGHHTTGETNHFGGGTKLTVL; 1900

Below: the item to evaluate.
Query string: For the binder PaB670143 IgG (antibody, V domains shown, IgG1-TM (L234F, L235E, P331S), human lambda light chain) VH: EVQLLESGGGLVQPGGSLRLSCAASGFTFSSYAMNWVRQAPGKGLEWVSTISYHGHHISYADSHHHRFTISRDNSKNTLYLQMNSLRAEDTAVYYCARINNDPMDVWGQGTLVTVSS VL: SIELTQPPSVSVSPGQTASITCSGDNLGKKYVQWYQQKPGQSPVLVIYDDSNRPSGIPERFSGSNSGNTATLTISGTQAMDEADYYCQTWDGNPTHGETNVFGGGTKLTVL , report IC50.
Result string: 40
